Where do these numbers come from? They come from ChEMBL document CHEMBL4014327.

- Test system: Canis familiaris
- Assay Summary: Plasma clearance in Beagle dog at 1 mg/kg, iv administered as single dose
- Type: ADME, organism-based, Canis lupus familiaris
- Conditions Used: in vivo
Property Measured: clearance (mL/min/kg)
Supply the numeric figure in mL/min/kg, leaving out any unit text.

[Q] Recorded clearance of `CC[C@@H]1[C@H](F)C(=O)N[C@@H]1COc1nccc2cc(C(N)=O)c(OC)cc12` , please.
[A] 10

----------
- Assay Summary: Volume of distribution at steady state in cynomolgus monkey at 1 mg/kg, iv administered as single dose
- Format: ADME, organism-based, Macaca fascicularis
- Conditions Used: in vivo, read-out: Vdss
Property Measured: Vd (L/kg)
Supply the numeric figure in L/kg, leaving out any unit text.

[Q] Recorded Vd of CC[C@@H]1[C@H](F)C(=O)N[C@@H]1COc1nccc2cc(C(N)=O)c(OC)cc12 [ZIMLOVISERTIB] , please.
[A] 0.95
